Source of measurements: patent US12559474B2

test system: SARS-CoV-2; experiment: microbe, parasite or virus in culture; assay type: cell-based; conditions: Severe acute respiratory syndrome coronavirus 2, VeroE6/TMPRSS2, 72 h, 50% SARS-CoV-2 infected cell death inhibitory concentration; VeroE6/TMPRSS2 cells, 3 days culture, CellTiter-Glo 2.0
EC50 strictly less than 200 nM = True. Otherwise False.

{"structure": "O=c1[nH]cccc1Cn1c(=O)nc(NC23CC(Nc4ncc(F)cn4)(C2)C3)n(Cc2cc(F)c(F)c(F)c2)c1=O", "category label": "False"}
{"structure": "Cn1cc2cc(Nc3nc(=O)n(-c4cncc(Cl)c4)c(=O)n3Cc3ccc(F)c(C#N)c3)c(F)cc2n1", "category label": "False"}
{"structure": "Cc1cncc(-n2c(=O)nc(Nc3cc4cn(C)nc4cc3Cl)n(Cc3cc(Cl)c(F)cc3C)c2=O)c1", "category label": "False"}
{"structure": "Cc1cncc(-n2c(=O)nc(Nc3cc4cn(C)nc4cc3Cl)n(Cc3cc(F)c(F)c(C#N)c3)c2=O)c1", "category label": "True"}
{"structure": "Cn1cc2cc(Nc3nc(=O)n(-c4cncc(Cl)c4)c(=O)n3Cc3cc(F)c(F)c(F)c3)ccc2n1", "category label": "False"}
{"structure": "Cc1cncc(-n2c(=O)nc(Nc3cc4cn(C)nc4cc3Cl)n(Cc3cc(C#N)ccc3Cl)c2=O)c1", "category label": "True"}
